Entries and their inhibition in vivo at 150 µmol/kg values follow.
System: carrageenan-induced rat paw edema
experimental details: carrageenan-induced rat paw edema
Format: in vivo
measurement context: Rattus norvegicus, ip, 3.5 h, i.p. 0.15 mmol/kg, 3.5 h post carrageenan, female rats, vs controls given carrageenan only

{"compound": "COC(=O)CCNC(=O)C(C)c1ccc(CC(C)C)cc1 (stereo not drawn)", "inhibition in vivo at 150 µmol/kg": "14%"}
{"compound": "COc1ccc2cc(C(C)C(=O)N3CCCC3C(=O)OCc3cc(OC)c(OC)c(OC)c3)ccc2c1 (stereo not drawn)", "inhibition in vivo at 150 µmol/kg": "37%"}
{"compound": "COc1cc(COC(=O)C(C)NC(=O)Cc2c[nH]c3ccccc23)cc(OC)c1OC (stereo not drawn)", "inhibition in vivo at 150 µmol/kg": "40.5%"}
{"compound": "COc1cc(COC(=O)C(Cc2ccc(O)cc2)NC(=O)C(C)c2ccc(CC(C)C)cc2)cc(OC)c1OC (stereo not drawn)", "inhibition in vivo at 150 µmol/kg": "67%"}
{"compound": "COc1cc(COC(=O)CCNC(=O)C(C)c2cccc(C(=O)c3ccccc3)c2)cc(OC)c1OC (stereo not drawn)", "inhibition in vivo at 150 µmol/kg": "91%"}
{"compound": "COc1ccc2cc([C@H](C)C(=O)O)ccc2c1", "inhibition in vivo at 150 µmol/kg": "11%"}
{"compound": "COC(=O)C1CCCN1C(=O)Cc1c[nH]c2ccccc12 (stereo not drawn) [Compound 14a]", "inhibition in vivo at 150 µmol/kg": "0%"}
{"compound": "COC(=O)C1CCCN1C(=O)C(C)c1ccc(CC(C)C)cc1 (stereo not drawn)", "inhibition in vivo at 150 µmol/kg": "20%"}
{"compound": "COC(=O)C(C)NC(=O)Cc1c[nH]c2ccccc12 (stereo not drawn) [Compound 13a]", "inhibition in vivo at 150 µmol/kg": "18%"}
